Biological target: ROCK2 (Homo sapiens (Human), UniProt O75116)
Sequence (O75116 whole entry, species assumed): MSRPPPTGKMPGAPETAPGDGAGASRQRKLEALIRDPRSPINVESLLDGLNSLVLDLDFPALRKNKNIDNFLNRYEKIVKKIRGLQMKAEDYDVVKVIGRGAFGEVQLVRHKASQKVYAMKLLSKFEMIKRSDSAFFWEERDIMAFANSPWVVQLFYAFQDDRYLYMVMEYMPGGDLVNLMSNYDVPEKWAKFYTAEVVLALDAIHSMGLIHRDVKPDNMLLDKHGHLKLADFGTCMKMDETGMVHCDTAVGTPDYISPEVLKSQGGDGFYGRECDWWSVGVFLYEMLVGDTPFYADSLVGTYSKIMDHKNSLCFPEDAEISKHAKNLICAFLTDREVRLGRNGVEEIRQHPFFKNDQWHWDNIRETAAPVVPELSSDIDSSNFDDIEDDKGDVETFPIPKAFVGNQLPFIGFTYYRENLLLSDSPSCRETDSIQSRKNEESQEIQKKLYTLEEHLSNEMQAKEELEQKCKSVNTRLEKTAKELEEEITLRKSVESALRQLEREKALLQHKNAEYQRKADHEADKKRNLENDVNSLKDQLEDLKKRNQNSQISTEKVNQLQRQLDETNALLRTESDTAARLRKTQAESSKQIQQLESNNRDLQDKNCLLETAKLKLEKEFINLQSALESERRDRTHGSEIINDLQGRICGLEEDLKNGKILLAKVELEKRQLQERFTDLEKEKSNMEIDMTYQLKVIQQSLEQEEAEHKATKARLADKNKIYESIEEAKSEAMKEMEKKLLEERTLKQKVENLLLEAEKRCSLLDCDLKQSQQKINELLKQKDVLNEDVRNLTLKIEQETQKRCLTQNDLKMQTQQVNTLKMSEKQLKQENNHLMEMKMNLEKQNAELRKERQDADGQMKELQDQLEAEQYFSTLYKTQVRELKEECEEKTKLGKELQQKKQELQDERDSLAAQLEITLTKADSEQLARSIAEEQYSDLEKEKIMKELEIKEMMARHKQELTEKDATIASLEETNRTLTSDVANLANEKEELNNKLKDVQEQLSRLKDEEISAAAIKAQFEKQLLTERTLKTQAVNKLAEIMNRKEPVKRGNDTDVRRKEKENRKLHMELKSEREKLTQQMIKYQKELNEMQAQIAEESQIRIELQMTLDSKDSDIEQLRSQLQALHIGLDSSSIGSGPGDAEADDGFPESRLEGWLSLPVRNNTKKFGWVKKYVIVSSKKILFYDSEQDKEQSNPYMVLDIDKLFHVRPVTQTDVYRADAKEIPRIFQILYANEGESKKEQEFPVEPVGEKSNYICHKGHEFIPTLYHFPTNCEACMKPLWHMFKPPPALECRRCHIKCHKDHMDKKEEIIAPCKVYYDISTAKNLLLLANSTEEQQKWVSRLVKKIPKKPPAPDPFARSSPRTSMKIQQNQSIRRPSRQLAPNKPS
Test: biochemical
experimental-endpoint: IC50

[[record]]
compound = "COCc1cc(N2CCC(Nc3cc(F)cc(OC)c3)C2=O)ccc1-c1cn[nH]c1 (single isomer, unassigned) [Example 185]"
experimental_endpoint = "IC50"
value = "100 to 2200 nM"

[[record]]
compound = "COc1nc(N2CCC(Nc3cccc(OC(F)F)c3)C2=O)ccc1-c1cn[nH]c1 (single isomer, unassigned) [Example 220]"
experimental_endpoint = "IC50"
value = "< 10 nM"

[[record]]
compound = "CCc1nc(N2CCC(Nc3ccc(F)c(OC)c3)C2=O)ccc1-c1cn[nH]c1 (single isomer, unassigned) [Example 318]"
experimental_endpoint = "IC50"
value = "10 to 100 nM"

[[record]]
compound = "COc1ccc(N[C@@H]2CCN(c3ccc(-c4cn[nH]c4)cc3)C2=O)c(OC)c1 [Example 384]"
experimental_endpoint = "IC50"
value = "100 to 2200 nM"

[[record]]
compound = "CCc1nc(N2CCC(Nc3cc(F)cc(OC)c3)C2=O)ccc1-c1cn[nH]c1 (single isomer, unassigned) [Example 316]"
experimental_endpoint = "IC50"
value = "< 10 nM"

[[record]]
compound = "COc1ccc(F)c(NC2CCN(c3ccc(-c4cn[nH]c4)cn3)C2=O)c1 (single isomer, unassigned) [Example 303]"
experimental_endpoint = "IC50"
value = "10 to 100 nM"

[[record]]
compound = "O=C1C(Cc2ccccc2F)CCN1c1ccc(-c2cn[nH]c2)cc1 (stereo not shown) [Example 96]"
experimental_endpoint = "IC50"
value = "10 to 100 nM"


----------
Biological target: ROCK2 (Homo sapiens (Human))
Test: biochemical
pIC50: −log10 of the molar value.
experimental-endpoint: pIC50

[[record]]
compound = "COc1cc(N2CCC(Nc3cc(F)cc(F)c3)C2=O)ccc1-c1cn[nH]c1 (single isomer, unassigned) [Example 145]"
value = "7.00 to 8.00"

[[record]]
compound = "COc1cc(N2CCC(Nc3cccc(F)c3)C2=O)ccc1-c1cn[nH]c1 (stereo not drawn)"
value = "> 8.00"

[[record]]
compound = "COc1c(F)cccc1NC1CCN(c2ccc(-c3cn[nH]c3)cc2)C1=O (stereo not drawn) [Example 1]"
value = "> 8.00"

[[record]]
compound = "COc1nc(N2CCC(Nc3ccc4c(c3)OCO4)C2=O)ccc1-c1cn[nH]c1 (racemic)"
value = "> 8.00"

[[record]]
compound = "O=C1C(Nc2cccc(OC(F)F)c2)CCN1c1ccc(-c2cn[nH]c2)cc1 (stereo not drawn) [Example 7]"
value = "> 8.00"

[[record]]
compound = "COc1nc(N2CCC(N3CCN(c4ccc(O)cc4)CC3)C2=O)ccc1-c1cn[nH]c1 (racemic)"
value = "5.66 to 7.00"

[[record]]
compound = "O=C1C(c2ccccc2)CCN1c1ccc(-c2cn[nH]c2)cc1 (stereo not drawn)"
value = "7.00 to 8.00"

[[record]]
compound = "COc1cccc(NC2CCN(c3ccc(-c4ccncc4F)c(OC)n3)C2=O)c1 (stereo not drawn)"
value = "> 8.00"

[[record]]
compound = "COc1cc(NC2CCN(c3cc(F)c(-c4cn[nH]c4)cc3F)C2=O)ccc1F (single isomer, unassigned) [Example 349]"
value = "7.00 to 8.00"

[[record]]
compound = "N#Cc1ccnc(NC2CCN(c3ccc(-c4cn[nH]c4)cc3)C2=O)c1 (stereo not drawn)"
value = "7.00 to 8.00"

[[record]]
compound = "COc1cc(F)cc(NC2CCN(c3ccc(-c4cn[nH]c4)nc3)C2=O)c1 (single isomer, unassigned) [Example 302]"
value = "> 8.00"

[[record]]
compound = "COc1cccc(NC2CCN(c3ccc(-c4ccnc(N)c4)cc3)C2=O)c1 (single isomer, unassigned) [Example 76]"
value = "5.66 to 7.00"

[[record]]
compound = "COc1cccc(OC2CCN(c3ccc(-c4ccc5cn[nH]c5c4)c(OC)n3)C2=O)c1 (single isomer, unassigned)"
value = "5.66 to 7.00"

[[record]]
compound = "COc1nc(N2CCC(Nc3cccc(S(=O)(=O)N4CCOCC4)c3)C2=O)ccc1-c1cn[nH]c1 (racemic)"
value = "7.00 to 8.00"

[[record]]
compound = "COCc1cc(N2CCC(Nc3cccc(OC)c3)C2=O)ccc1-c1cn[nH]c1 (single isomer, unassigned) [Example 183]"
value = "5.66 to 7.00"


----------
Target: ROCK2 (Homo sapiens (Human), UniProt O75116)
Assay: biochemical
pIC50: −log10 of the molar value.
experimental-endpoint: pIC50

[[record]]
compound = "COc1cc(F)cc(NC2CCN(c3ccc(-c4cn[nH]c4)c(C(F)F)c3)C2=O)c1 (single isomer, unassigned) [Example 178]"
value = "7.00 to 8.00"

[[record]]
compound = "COc1cccc(NC2CCN(c3ccc(-c4cn[nH]c4)cc3F)C2=O)c1 (single isomer, unassigned)"
value = "7.00 to 8.00"

[[record]]
compound = "CCOc1cc(N2CCC(Nc3cccc(OC)c3)C2=O)ccc1-c1cn[nH]c1 (single isomer, unassigned) [Example 34]"
value = "> 8.00"

[[record]]
compound = "O=C1C(Nc2cccc(OCC3CC3)c2)CCN1c1ccc(-c2cn[nH]c2)cn1 (single isomer, unassigned) [Example 320]"
value = "5.66 to 7.00"

[[record]]
compound = "COCc1cc(N2CCC(Nc3cccc(OC)c3)C2=O)ccc1-c1cn[nH]c1 (single isomer, unassigned) [Example 184]"
value = "7.00 to 8.00"

[[record]]
compound = "COc1ccc(Cl)c(NC2CCN(c3ccc(-c4cn[nH]c4)c(OC)n3)C2=O)c1 (racemic)"
value = "7.00 to 8.00"

[[record]]
compound = "COc1nc(N2CCC(N3CCC(CO)CC3)C2=O)ccc1-c1cn[nH]c1 (racemic)"
value = "7.00 to 8.00"


----------
Molecular target: ROCK2 (Homo sapiens (Human))
Assay: biochemical
experimental-endpoint: IC50

[[record]]
compound = "COc1cccc(OC2CCN(c3ccc(-c4cn[nH]c4)c(OC)n3)C2=O)c1 (single isomer, unassigned) [Example 171]"
value = "< 10 nM"

[[record]]
compound = "O=C1C(Oc2ccccc2Cl)CCN1c1ccc(-c2cn[nH]c2)cc1 (stereo not shown)"
value = "10 to 100 nM"

[[record]]
compound = "COc1cc(NC2CCN(c3ccc(-c4cn[nH]c4)cc3F)C2=O)ccc1F (single isomer, unassigned)"
value = "10 to 100 nM"

[[record]]
compound = "O=C1C(Nc2cccc(OCC3CC3)c2)CCN1c1ccc(-c2cn[nH]c2)cc1 (stereo not shown) [Example 11]"
value = "< 10 nM"


----------
Molecular target: UniProtKB O75116
Assay: biochemical
experimental-endpoint: IC50

[[record]]
molecule = "COc1ccc(NC2CCN(c3ccc(-c4cn[nH]c4)cc3F)C2=O)cc1F (single isomer, unassigned)"
value = "100 to 2200 nM"

[[record]]
molecule = "Cc1nc(N2CCC(Nc3cccc(OCC4CC4)c3)C2=O)ccc1-c1cn[nH]c1 (single isomer, unassigned)"
value = "10 to 100 nM"

[[record]]
molecule = "COc1nc(N2CCC(N3CCOc4ccccc43)C2=O)ccc1-c1cn[nH]c1 (racemic) [Example 225]"
value = "< 10 nM"

[[record]]
molecule = "COc1cccc(NC2CCN(c3ccc(-c4cn[nH]c4)cc3)C2=O)c1 (stereo not shown) [Example 63]"
value = "< 10 nM"


----------
Target: ROCK2 (Homo sapiens (Human), UniProt O75116);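 note: rho kinase enzyme reaction halted with EDTA, phospho- and non-phospho peptide separated for read-out, kinase activity inhibition derived across a dose-response series, DMSO under 2%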
Assay: biochemical
pIC50: −log10 of the molar value. Structures can show the parent of a compound that is named as a salt.
pIC50 by entry:
experimental-endpoint: pIC50

[[record]]
molecule = "COc1cc(F)cc(NC2CCN(c3ccc(-c4cn[nH]c4)c(C(F)(F)F)c3)C2=O)c1 (single isomer, unassigned) [Example 369]"
measurement_target = "ROCK2 (Homo sapiens (Human), UniProt O75116)"
value = "5.66 to 7.00"

[[record]]
molecule = "O=C1C(NCc2cccc(F)c2)CCN1c1ccc(-c2cn[nH]c2)cc1 (stereo not shown) [Example 61, TFA]"
measurement_target = "ROCK2 (Homo sapiens (Human), UniProt O75116)"
value = "5.66 to 7.00"

[[record]]
molecule = "O=C1C(c2cccc(F)c2)CCN1c1ccc(-c2cn[nH]c2)cc1 (stereo not shown) [Example 102]"
measurement_target = "ROCK2 (Homo sapiens (Human), UniProt O75116)"
value = "5.66 to 7.00"

[[record]]
molecule = "COc1ccc(F)c(NC2CCN(c3ccc(-c4cn[nH]c4)cc3F)C2=O)c1 (single isomer, unassigned) [Example 340]"
measurement_target = "ROCK2 (Homo sapiens (Human), UniProt O75116)"
value = "5.66 to 7.00"

[[record]]
molecule = "COc1nc(N2CCC(N3CC[C@H](O)C3)C2=O)ccc1-c1cn[nH]c1 (mixture of isomers) [Example 295]"
measurement_target = "ROCK2 (Homo sapiens (Human), UniProt O75116)"
value = "5.66 to 7.00"

[[record]]
molecule = "CCc1nc(N2CCC(Nc3cccc(OC)c3)C2=O)ccc1-c1cn[nH]c1 (single isomer, unassigned) [Example 313]"
measurement_target = "ROCK2 (Homo sapiens (Human), UniProt O75116)"
value = "> 8.00"

[[record]]
molecule = "COc1cc(F)cc(NC2CCN(c3ccc(-c4cn[nH]c4)c(F)c3F)C2=O)c1 (single isomer, unassigned) [Example 310]"
measurement_target = "ROCK2 (Homo sapiens (Human), UniProt O75116)"
value = "> 8.00"

